experimentalDetails: TNF-a-driven NF-kB reporter inhibitors, primary screen, selectivity assay for NOD1/NOD2 signaling inhibitor project, cell-based, HEK293T NF-kB-Luc, luminescence (AID 1852)
runParameters: TNF-a induced, 14 h, at 4 µM
Screen size: about 2,500 compounds; about 1,100 (44%) were called active.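 Rule for the calls: active = inhibition above 50% at 4 µM in the single-point screen; inactive = inhibition of 50% or less.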 The set was probably picked from earlier hits. The list shows a part of the results.
Please answer using one outcome listed in true (active), false (inactive)

Look up the recorded call for CCSc1nc2c(c(=O)[nH]c(=O)n2C)n1C/C=C(/C)Cl in this test.
false

What was the test verdict on C=CCn1c(O)c(N=NC(=S)Nc2ccc(OC)cc2)c2ccccc21 ?
true

Test call, this compound: CC(=O)c1cn(CCOc2cc(C)ccc2C)c2ccccc12
true

What outcome does the record of this test show for Cc1ccccc1Cn1c(C)nc2ccccc21 ?
false

Per the records of this test, what outcome belongs to O=C1/C(=C\c2cccc([N+](=O)[O-])c2O)SC(=S)N1Cc1ccccc1 ?
false

Given O=C1/C(=C\c2cc(Cl)c(O)c(Cl)c2)SC(=S)N1Cc1ccccc1 , state the outcome it received in this test.
true

Dear all, I need the recorded test outcome for O=C1/C(=C/c2ccc(O)c([N+](=O)[O-])c2)SC(=S)N1Cc1ccccc1 , thank you.
true

Which outcome was assigned to Cc1ccnc(NC(=O)CSc2cc(=O)n(C)c3ccccc23)c1 in this test?
true

Given CCn1c(=O)cc(SCC(=O)Nc2ccc(C)cn2)c2ccccc21 , state the outcome it received in this test.
false

====

experimentalDetails: TNF-a-driven NF-kB reporter inhibitors, primary screen, selectivity assay for NOD1/NOD2 signaling inhibitor project, cell-based, HEK293T NF-kB-Luc, luminescence (AID 1852)
runParameters: TNF-a induced, 14 h, at 4 µM, stronger effect = higher value
In all, about 2,500 compounds went through this assay and about 1,100 (44%) were called active. So high a share suggests a set chosen from earlier hits. This is one part of the list.
Binary classification by inhibition, with 50% as an inclusive lower bound for Satisfied; all other cases are Not satisfied.

Reported inhibition reaches at least 50% for CC1CCCC(NC(=O)NC(=O)CCl)C1C (stereo not drawn) ?
Satisfied

Can CC1CCCCC1NC(=O)NC(=O)CCl (stereo not drawn) be said to have inhibition at or above 50%?
Satisfied

Has Brc1ccc2ncnc(NCc3cccnc3)c2c1 a recorded inhibition greater than or equal to 50%?
Satisfied

Decide: inhibition of Cn1c(=O)c(C(=O)CCl)c(N)n(Cc2ccccc2)c1=O >= 50%?
Satisfied

Confirm if inhibition reported for the compound O=C(Nc1cccc(NC(=O)c2ccc(-c3cccc(Br)c3)o2)c1)c1ccco1 is 50% or above.
Not satisfied

Has C=CS(=O)(=O)c1ccc(Oc2ccc(S(=O)(=O)C=C)cc2)cc1 a recorded inhibition greater than or equal to 50%?
Satisfied

Is inhibition at least 50%? Consider CC(C)Cn1c(N)c(C(=O)COC(=O)CC23CC4CC(CC(C4)C2)C3)c(=O)n(C)c1=O
Not satisfied

Does the reported inhibition for CC(C)(C)OC(=O)NCC(=O)Oc1cc2oc(=O)cc(-c3ccccc3)c2cc1Cl fall at or above the 50% mark?
Satisfied

Check the entry Nc1c(Cl)ncnc1N/N=C/c1ccccn1 : does inhibition equal or exceed 50%?
Satisfied

Answer whether inhibition of CC1=C(C(=O)OCc2ccc3c(c2)OCO3)C(c2ccc(O)c([N+](=O)[O-])c2)NC(=O)N1 (stereo not drawn) is greater than or equal to 50%.
Satisfied

inhibition >= 50% for C=CCNc1ncnc2ccc(Br)cc12 ?
Not satisfied

inhibition >= 50% for O=C(Cn1ncc(Cl)c(Cl)c1=O)c1ccc(Cl)cc1 ?
Satisfied

Assess whether reported inhibition for C=C(C(=O)c1ccccc1)C(C(=C)C(=O)c1ccccc1)c1ccc(OC)cc1 sits at 50% or higher.
Satisfied

Given CCOc1ccc(C(=O)C(CCC(CN(C)C)C(=O)c2ccc(OCC)cc2)CN(C)C)cc1 (stereo not drawn) , state whether its inhibition is at least 50%.
Not satisfied

Assess whether reported inhibition for CC(=O)c1cccc(Nc2ncnc3ccc(Br)cc23)c1 sits at 50% or higher.
Satisfied

API: above_or_equal(metric=inhibition, cutoff=50%) for item O=C(CCCN1C(=O)/C(=C/c2ccccc2Cl)SC1=S)NNC(=O)c1ccccc1
Not satisfied

Please indicate if the recorded inhibition for O=C(Nc1nc2cc3c(cc2s1)OCCO3)c1ccco1 meets or exceeds 50%.
Not satisfied

Hi, just wondering whether O=C(NCCCSc1ccccc1)c1cc(Cl)ccc1O shows inhibition of 50% or higher.
Satisfied

Could you verify whether the entry Cc1ccc(/C=C2\SC(=S)N(CCCC(=O)NNC(=O)c3ccccc3O)C2=O)cc1 shows inhibition of no less than 50%?
Satisfied

For this compound, is measured inhibition 50% or higher? CC(C)(C)C(=O)Nc1ccc(NC(=O)c2ccco2)nc1
Satisfied

Answer whether inhibition of O=c1c2cc([N+](=O)[O-])ccc2nc(CN2CCN(c3ccccn3)CC2)n1-c1ccccc1F is greater than or equal to 50%.
Not satisfied

Does the reported inhibition for O=C(CCCN1C(=O)/C(=C/c2cccs2)SC1=S)Nc1cccc(O)c1 fall at or above the 50% mark?
Not satisfied

Reported inhibition at or above 50%? O=C(CCCN1C(=O)/C(=C/c2ccccc2Cl)SC1=S)NNC(=O)c1ccc(Cl)cc1
Satisfied

Item Brc1ccc2ncnc(NCc3ccco3)c2c1 with inhibition of 50% or above?
Satisfied

Threshold query (inhibition >= 50%) on O=C(NCCCSc1ccccc1)c1cc(Br)ccc1O
Satisfied

Check this compound for inhibition at or above 50%: COc1ccc(Cc2nc3ccc(C(=O)N4CCN(C)C(C)C4)cc3o2)cc1OC (stereo not drawn)
Not satisfied

# bool: inhibition of COc1ccc(S(=O)(=O)NCC2CCCN(Cc3cccnc3)C2)cc1 (stereo not drawn) >= 50%
Not satisfied

Hello, I need to know if O=C(NCCc1ccccc1)c1ccc2c(c1)OCO2 has measured inhibition not below 50%. Thanks!
Not satisfied

For this compound, is measured inhibition 50% or higher? Brc1ccc2ncnc(Nc3cccc4ccccc34)c2c1
Satisfied

Does the compound CCC1CCCCN1S(=O)(=O)c1ccc(C(=O)Nc2nnc(-c3ccccc3Cl)o2)cc1 (stereo not drawn) have recorded inhibition that is 50% or more?
Satisfied

Say whether Brc1ccc2ncnc(Nc3ccc(N4CCOCC4)cc3)c2c1 shows inhibition of 50% or more.
Satisfied

Check if inhibition >= 50% (inclusive). Item: CC(C)(C)C(=O)Cn1ncc(Cl)c(Cl)c1=O
Not satisfied

Please tell me: is the compound COCCn1c(=S)[nH]c2cc(C(=O)N3CCCC(C)C3)ccc2c1=O (stereo not drawn) at or over 50% in terms of inhibition?
Satisfied
